Please provide measured solubility for the entries that follow.
- measurement notes: Solubility in water by spectrophotometry
- Type: physicochemical
Answers are plain numbers, in µg/mL.

Br.Br.N=C(N)SCc1ccc(COc2ccc(OCc3ccc(CSC(=N)N)cc3)c3c2C(=O)c2ccccc2C3=O)cc1 : 59.3

Data request: Which value of solubility has been reported for CCCCCCCC[N+](C)(CCCCCCCC)Cc1ccc(COc2ccc(OCc3ccc(C[N+](CCO)(CCO)CCO)cc3)c3c2C(=O)c2ccccc2C3=O)cc1.[Br-].[Br-] in the records?
Data returned: 28200

Values were extracted from ChEMBL document CHEMBL4665635.
